B1: library; numbered along this chain (parent)
chain: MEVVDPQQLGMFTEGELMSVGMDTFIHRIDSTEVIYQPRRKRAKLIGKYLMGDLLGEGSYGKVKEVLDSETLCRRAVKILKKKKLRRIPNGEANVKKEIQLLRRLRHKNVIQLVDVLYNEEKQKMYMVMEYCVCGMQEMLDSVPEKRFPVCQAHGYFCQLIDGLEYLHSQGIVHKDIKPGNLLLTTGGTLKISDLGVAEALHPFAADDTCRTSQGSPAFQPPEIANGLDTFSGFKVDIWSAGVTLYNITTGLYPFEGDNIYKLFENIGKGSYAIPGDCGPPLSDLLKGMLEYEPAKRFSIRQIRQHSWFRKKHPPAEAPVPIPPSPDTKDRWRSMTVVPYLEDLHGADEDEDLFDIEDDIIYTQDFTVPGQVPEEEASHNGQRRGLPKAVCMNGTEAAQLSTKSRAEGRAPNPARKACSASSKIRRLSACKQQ

- Variants of: B1
- assay_summary: STK11 functional score (HeLa growth suppression), rescaled enrichment; synonymous median = 1, nonsense median = 0 (normalised score)
- condition_info: with HeLa; variant type: missense
measured_attribute: STK11 functional score
I only need the number, thanks.

Task item: Fill in the blank: the reported STK11 functional score of Y126L is ____.
Reply: 0.421

Task item: Fill in the blank: the reported STK11 functional score of L160H is ____.
Reply: 0.212

Task item: Fill in the blank: the reported STK11 functional score of K84W is ____.
Reply: 1.14

Task item: Fill in the blank: the reported STK11 functional score of T230S is ____.
Reply: 0.93

Task item: Fill in the blank: the reported STK11 functional score of S232E is ____.
Reply: 1.36

Task item: Fill in the blank: the reported STK11 functional score of D284E is ____.
Reply: 1

Task item: Fill in the blank: the reported STK11 functional score of K41D is ____.
Reply: 1.39

Task item: Fill in the blank: the reported STK11 functional score of P144T is ____.
Reply: 1.18

Task item: Fill in the blank: the reported STK11 functional score of I361T is ____.
Reply: 1.58

Task item: Fill in the blank: the reported STK11 functional score of P254Y is ____.
Reply: 0.0833

Task item: Fill in the blank: the reported STK11 functional score of P373D is ____.
Reply: 1.58

Task item: Fill in the blank: the reported STK11 functional score of P314Y is ____.
Reply: 0.95

Task item: Fill in the blank: the reported STK11 functional score of N119A is ____.
Reply: 1.44

Task item: Fill in the blank: the reported STK11 functional score of G61A is ____.
Reply: 1.35

Task item: Fill in the blank: the reported STK11 functional score of K108G is ____.
Reply: 0.95

Task item: Fill in the blank: the reported STK11 functional score of N259M is ____.
Reply: 1.35

Task item: Fill in the blank: the reported STK11 functional score of I248W is ____.
Reply: 0.853

Task item: Fill in the blank: the reported STK11 functional score of Q7I is ____.
Reply: 1.61

Task item: Fill in the blank: the reported STK11 functional score of M139N is ____.
Reply: 0.949

Task item: Fill in the blank: the reported STK11 functional score of C73E is ____.
Reply: 1.7

Task item: Fill in the blank: the reported STK11 functional score of E57Y is ____.
Reply: 0.95

Task item: Fill in the blank: the reported STK11 functional score of V133E is ____.
Reply: 0.588

Task item: Fill in the blank: the reported STK11 functional score of G381F is ____.
Reply: 1.13

Task item: Fill in the blank: the reported STK11 functional score of L102M is ____.
Reply: 0.857

Task item: Fill in the blank: the reported STK11 functional score of T336P is ____.
Reply: 1.18

Task item: Fill in the blank: the reported STK11 functional score of I46W is ____.
Reply: 0.0413

Task item: Fill in the blank: the reported STK11 functional score of N266I is ____.
Reply: 1.38

Task item: Fill in the blank: the reported STK11 functional score of I424G is ____.
Reply: 0.657

Task item: Fill in the blank: the reported STK11 functional score of F148N is ____.
Reply: 0.0347

Task item: Fill in the blank: the reported STK11 functional score of D53Y is ____.
Reply: 1.38

Task item: Fill in the blank: the reported STK11 functional score of R297I is ____.
Reply: 0.0965

Task item: Fill in the blank: the reported STK11 functional score of E92C is ____.
Reply: 1.68

Task item: Fill in the blank: the reported STK11 functional score of A218T is ____.
Reply: 0.88

Task item: Fill in the blank: the reported STK11 functional score of W239H is ____.
Reply: 0.199

Task item: Fill in the blank: the reported STK11 functional score of R86I is ____.
Reply: 1.24

Task item: Fill in the blank: the reported STK11 functional score of M392R is ____.
Reply: 0.973

Task item: Fill in the blank: the reported STK11 functional score of T328R is ____.
Reply: 1.5

Task item: Fill in the blank: the reported STK11 functional score of R405N is ____.
Reply: 1.33

Task item: Fill in the blank: the reported STK11 functional score of Q305V is ____.
Reply: 1.59

Task item: Fill in the blank: the reported STK11 functional score of Y126R is ____.
Reply: 0.256

Task item: Fill in the blank: the reported STK11 functional score of M18W is ____.
Reply: 0.78

Task item: Fill in the blank: the reported STK11 functional score of Q364H is ____.
Reply: 0.685

Task item: Fill in the blank: the reported STK11 functional score of N412S is ____.
Reply: 1.48

Task item: Fill in the blank: the reported STK11 functional score of E120V is ____.
Reply: 1.09

Task item: Fill in the blank: the reported STK11 functional score of Q37D is ____.
Reply: 1.4

Task item: Fill in the blank: the reported STK11 functional score of V243I is ____.
Reply: 1.42

Task item: Fill in the blank: the reported STK11 functional score of A429R is ____.
Reply: 1.5

Task item: Fill in the blank: the reported STK11 functional score of V368C is ____.
Reply: 1.58

Task item: Fill in the blank: the reported STK11 functional score of Q170H is ____.
Reply: 0.738

Task item: Fill in the blank: the reported STK11 functional score of N247R is ____.
Reply: 0.936

Task item: Fill in the blank: the reported STK11 functional score of S216D is ____.
Reply: 0.167

Task item: Fill in the blank: the reported STK11 functional score of F148H is ____.
Reply: -0.00697

Task item: Fill in the blank: the reported STK11 functional score of Q112L is ____.
Reply: 1.08

Task item: Fill in the blank: the reported STK11 functional score of W332G is ____.
Reply: 1.55

Task item: Fill in the blank: the reported STK11 functional score of N412F is ____.
Reply: 1.23

Task item: Fill in the blank: the reported STK11 functional score of P280A is ____.
Reply: 0.896

Task item: Fill in the blank: the reported STK11 functional score of K423C is ____.
Reply: 1.58

Task item: Fill in the blank: the reported STK11 functional score of R383I is ____.
Reply: 1.57

Task item: Fill in the blank: the reported STK11 functional score of K82Q is ____.
Reply: 1.7

Task item: Fill in the blank: the reported STK11 functional score of E14I is ____.
Reply: 1.4

Task item: Fill in the blank: the reported STK11 functional score of R40L is ____.
Reply: 0.804

Task item: Fill in the blank: the reported STK11 functional score of V320H is ____.
Reply: 1.59

Task item: Fill in the blank: the reported STK11 functional score of R106Y is ____.
Reply: 1.64

Task item: Fill in the blank: the reported STK11 functional score of G58A is ____.
Reply: 0.935

Task item: Fill in the blank: the reported STK11 functional score of N266H is ____.
Reply: 1.29

Task item: Fill in the blank: the reported STK11 functional score of G276I is ____.
Reply: 0.493

Task item: Fill in the blank: the reported STK11 functional score of Y261S is ____.
Reply: 0.699

Task item: Fill in the blank: the reported STK11 functional score of K175A is ____.
Reply: 0.904

Task item: Fill in the blank: the reported STK11 functional score of R331L is ____.
Reply: 1.2

Task item: Fill in the blank: the reported STK11 functional score of S142P is ____.
Reply: 1.34

Task item: Fill in the blank: the reported STK11 functional score of G15P is ____.
Reply: 1.66

Task item: Fill in the blank: the reported STK11 functional score of M125P is ____.
Reply: 0.267

Task item: Fill in the blank: the reported STK11 functional score of K431L is ____.
Reply: 1.6

Task item: Fill in the blank: the reported STK11 functional score of T363E is ____.
Reply: 1.6

Task item: Fill in the blank: the reported STK11 functional score of Y118N is ____.
Reply: 0.286
